Below, each entry is listed with its recorded IC50.
System: GA0119
Test: In vitro activity test of gastric cancer PDX (CellTiter-Glo), GA0119
Type: cell-based
Conditions: PDX GA0119, gastric cancer with high BRK expression, 168 hours
Field: value (include unit after the number)

Consider the following illustrative entries.
> print(dat)
                                   compound   result
1  Cc1nn(CCO)cc1Nc1ncc2cc(-c3nccnc3C)cc(C(C)C)c2n1 [I-81]  4540 nM
2  COc1c(P(C)(C)=O)ccc(Nc2ncc3cc(-c4nccnc4C)cc(C4CC4)c3n2)c1F [II-69]  8010 nM
3  N.N.[Cl][Pt][Cl] [cisplatin, reference compound]  1380 nM

Now consider the entry below.
Look up IC50: Cc1nn(CCO)cc1Nc1ncc2cc(-c3cccnc3)cc(C(C)C)c2n1 [I-21]
1140 nM

* * *

Tested on: WT-BaF3 cells
Experiment: Cell antiproliferative activity assay (CCK-8), WT-BaF3 (broad-spectrum cytotoxicity)
Assay type: cell-based
Conditions: 72 h; WT-BaF3 cells (IL-3 supplemented), CCK-8, 3 days incubation
Text: The activity of compounds against BRK kinase can be evaluated by their inhibition of the growth of the BRK kinase-stably transfected BaF3 cell line (BRK-BaF3) and wild-type BaF3 cells (WT-BaF3). […] The larger the ratio of the half-maximal growth inhibitory concentration (IC50) of a compound between WT-BaF3 and BRK-BaF3 cells, the better the selectivity of the compound. […]
Below, each entry is listed with its recorded IC50.

Consider the following illustrative entries.
> print(dat)
                           substance.smiles  assayed.target          result
1  Cc1nn(CC(N)=O)cc1Nc1ncc2cc(-c3cncnc3C)cc(C(C)C)c2n1   WT-BaF3 cells       > 2500 nM
2  Cc1nn(C)cc1Nc1ncc2cc(-c3nccnc3C)cc(C(C)C)c2n1   WT-BaF3 cells  500 to 2500 nM

Look up IC50: Cc1cccnc1-c1cc(C(C)C)c2nc(Nc3cn(CCO)nc3C)ncc2c1
> 2500 nM

* * *

Test system: WT-BaF3 cells
Experiment: Cell antiproliferative activity assay (CCK-8), WT-BaF3 (broad-spectrum cytotoxicity)
Type: cell-based
Conditions: 72 h; WT-BaF3 cells (IL-3 supplemented), CCK-8, 3 days incubation
pIC50: −log10 of the molar value.
Value Kind: pIC50

Consider the following illustrative entries.
> print(dat)
                                   compound  assayed.target        result
1  Cc1cnc(F)cc1-c1cc(C(C)C)c2nc(Nc3cn(CCO)nc3C)ncc2c1 [I-17]   WT-BaF3 cells  5.60 to 6.30
2  Cc1nn(CCO)cc1Nc1ncc2cc(-c3cccnc3C3CC3)cc(C(C)C)c2n1 [I-28]   WT-BaF3 cells  5.60 to 6.30

Look up pIC50: Cc1nn(CCO)cc1Nc1ncc2cc(-c3c(C)ncnc3C)cc(C3CC3)c2n1 [I-147]
5.60 to 6.30

Look up pIC50: Cc1nn(C)cc1Nc1ncc2cc(-c3c(C#N)cnn3C)cc(C(C)C)c2n1 [III-86]
< 5.60

* * *

System: WT-BaF3 cells
Experiment: Cell antiproliferative activity assay (CCK-8), WT-BaF3 (broad-spectrum cytotoxicity)
Format: cell-based
Details: 72 h; WT-BaF3 cells (IL-3 supplemented), CCK-8, 3 days incubation
pIC50: −log10 of the molar value.
Value Kind: pIC50

Consider the following illustrative entries.
> print(dat)
                                   molecule        result
1  COc1cccnc1-c1cc(C(C)C)c2nc(Nc3cn(CCO)nc3C)ncc2c1 [I-4]        < 5.60
2  Cc1nn(CCO)cc1Nc1ncc2cc(-c3c(C)ncnc3O)cc(C(C)C)c2n1 [I-130]        < 5.60
3  Cc1ncnc(C)c1-c1cc(C(C)C)c2nc(Nc3ccc(P(C)(C)=O)c(C)c3F)ncc2c1 [II-56]        < 5.60
4  [2H]C([2H])([2H])n1cc(Nc2ncc3cc(-c4cc(=O)[nH]cc4C)cc(C(C)C)c3n2)c(C)n1 [III-9]  5.60 to 6.30

Report pIC50 for Cc1nn(C)cc1Nc1ncc2cc(-c3cncc(F)c3C(N)=O)cc(C(C)C)c2n1 [III-127] tested on WT-BaF3 cells.
< 5.60

Report pIC50 for Cc1nn(CCO)cc1Nc1ncc2cc(-c3nccnc3C)cc(C3CC3)c2n1 [I-103] tested on WT-BaF3 cells.
5.60 to 6.30

Report pIC50 for Cc1nccnc1-c1cc(C(F)(F)F)c2nc(Nc3ccc(P(C)(C)=O)cc3F)ncc2c1 [II-35] tested on WT-BaF3 cells.
< 5.60
